# literature pull: CK1ε (Homo sapiens (Human)) pIC50
# Sequence (P49674 whole entry): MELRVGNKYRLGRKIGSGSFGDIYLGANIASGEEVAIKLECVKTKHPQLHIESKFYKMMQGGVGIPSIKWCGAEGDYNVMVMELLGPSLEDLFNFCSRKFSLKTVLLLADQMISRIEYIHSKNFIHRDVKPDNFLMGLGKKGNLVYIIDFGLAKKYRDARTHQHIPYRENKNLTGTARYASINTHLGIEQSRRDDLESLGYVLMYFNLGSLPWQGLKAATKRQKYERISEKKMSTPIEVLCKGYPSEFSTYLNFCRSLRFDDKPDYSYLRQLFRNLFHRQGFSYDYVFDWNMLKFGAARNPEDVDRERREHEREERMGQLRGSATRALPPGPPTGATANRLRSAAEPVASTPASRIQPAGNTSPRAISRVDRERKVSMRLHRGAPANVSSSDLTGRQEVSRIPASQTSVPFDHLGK
Schema: pIC50 number; meaning minus log10 of the concentration expressed in molar units.

Request - read-out pIC50 | tested on CK1ε (Homo sapiens (Human)) | compound `Cc1nc(-c2ccc(F)cc2)c(-c2ccc3nc(NC(=O)c4cncc(-c5ccc(F)nc5)c4)cn3n2)n1C`
8.53

GET /values?readout=pIC50&system=CK1ε (Homo sapiens (Human))&item= `NC(=O)CN1CCC(n2cnc(-c3ccc(F)cc3)c2-c2ccc3nc(NC(=O)c4ccnc5ccccc45)cn3n2)CC1`
9.05

# value lookup — system CK1ε (Homo sapiens (Human)), readout pIC50, item `O=C(Nc1cn2nc(-c3c(-c4ccc(F)cc4)nc4ccccn34)ccc2n1)c1ccnc2[nH]cnc12`
7.76

Query pIC50 on CK1ε (Homo sapiens (Human)) for `Cc1nc(-c2ccc(F)cc2)c(-c2ccc3nc(NC(=O)c4ccccc4CN(C)C)cn3n2)n1C`
7.26

API: value(readout=pIC50, system=CK1ε (Homo sapiens (Human))) for record `Cc1nc(C(=O)Nc2cn3nc(-c4c(-c5ccc(F)cc5)nc(C)n4C)ccc3n2)co1`
7.70

Recall the recorded pIC50 for `Cc1nc2ccc(N3C[C@@H](C)N[C@@H](C)C3)nn2c1-c1ccnc2[nH]ccc12` with CK1ε (Homo sapiens (Human)) and state it.
6.52

Enter reported pIC50 observed with CK1ε (Homo sapiens (Human)) for `Cc1cc(C)n(CCC(=O)Nc2cn3nc(-c4c(-c5ccc(F)cc5)nc5ccccn45)ccc3n2)n1`
7.77

Form field: pIC50 recorded for `COC(=O)N1CCn2c(nc(-c3ccc(F)cc3)c2-c2ccc3nc(NC(=O)c4ccnc(F)c4)cn3n2)C1` with CK1ε (Homo sapiens (Human)) (enter value)
8.03

What measured pIC50 is associated with `Cc1nc(-c2ccc(F)cc2)c(-c2ccc3nc(NC(=O)c4ccnc(F)c4)cn3n2)n1C1CCN(C(=O)c2ccsn2)CC1` on CK1ε (Homo sapiens (Human))?
8.31

Which measured pIC50 belongs to O=C(Nc1cn2nc(-c3c(-c4ccc(F)cc4)ncn3C3CCN(CC4C[C@@H]5CC[C@H]4C5)CC3)ccc2n1)c1ccnc(F)c1 (some centres unmarked) , tested on CK1ε (Homo sapiens (Human))?
7.95

# value lookup — system CK1ε (Homo sapiens (Human)), readout pIC50, item `Cn1cnc(-c2ccc(F)cc2)c1-c1ccc2nc(NC(=O)c3ccnc(F)c3)cn2n1`
8.54

What value of pIC50 on CK1ε (Homo sapiens (Human)) does `NC(=O)CN1CCC(n2cnc(-c3ccc(F)cc3)c2-c2ccc3nc(NC(=O)c4cc(F)nc(F)c4)cn3n2)CC1` have?
8.96

Could you share what pIC50 was measured for `CN1CCC(C(=O)Nc2cn3nc(-c4cn(C)nc4-c4ccc(F)cc4)ccc3n2)CC1` , tested on CK1ε (Homo sapiens (Human))?
6.87

Value wanted: pIC50 (CK1ε (Homo sapiens (Human))) of entry CC1(C)CC1C(=O)N1CCC(n2cnc(-c3ccc(F)cc3)c2-c2ccc3nc(NC(=O)c4ccnc(F)c4)cn3n2)CC1 (centres unmarked)
8.14

What reported pIC50 corresponds to `COCCn1cnc(-c2ccc(F)cc2)c1-c1ccc2nc(NC(=O)C(C)(C)C)cn2n1` on CK1ε (Homo sapiens (Human))?
8.60

What pIC50 appears in the records for this compound with CK1ε (Homo sapiens (Human))? `O=C(Nc1cn2nc(-c3c(-c4ccc(F)cc4)nc(C4CC4)n3C3CCN(S(=O)(=O)C4CC4)CC3)ccc2n1)c1ccnc(F)c1`
7.57

// map `CN(C)c1ccc(C(=O)Nc2cn3nc(-c4cn(C)nc4-c4ccc(F)cc4)ccc3n2)cn1` to recorded pIC50 (system: CK1ε (Homo sapiens (Human)))
8.18

Which measured pIC50 belongs to `COc1ccc(-c2c(C(N)=O)c3n(c2C2CC2)CCN(C(=O)NC2(C4CC4)CC2)C3)cc1` , tested on CK1ε (Homo sapiens (Human))?
7.40

Form field: pIC50 recorded for `Cc1nc(-c2ccc(F)cc2)c(-c2ccc3nc(NC(=O)[C@@H]4CCC(=O)N4)cn3n2)n1C` with CK1ε (Homo sapiens (Human)) (enter value)
7.11

Fill in the recorded pIC50 for this compound, with CK1ε (Homo sapiens (Human)) as test system: `CN(C)c1ccc(-c2c(C(N)=O)c3n(c2C2CC2)CCN(C(=O)NC(C)(C)C)C3)cc1`
8.40

Give CK1ε (Homo sapiens (Human)) pIC50 for `Cn1cc(-c2ccc3nc(Nc4ncccn4)cn3n2)c(-c2ccc(F)cc2)n1`
7.32

Lab note: need pIC50 for `Cc1nc2ccc(N3CCNCC3)nn2c1-c1ccncc1` on CK1ε (Homo sapiens (Human)), anyone have it?
7.24

API: value(readout= pIC50, system= CK1ε (Homo sapiens (Human)), query= `Cc1nc(-c2ccc(F)cc2)c(-c2ccc3nc(NC(=O)c4ccc5cccnc5c4)cn3n2)n1C` )
8.59

Could you share what pIC50 was measured for `Cn1nc(-c2ccc(F)cc2)c(-c2ccc3nc(NC(=O)c4ccnc(F)c4)cn3n2)c1N1CCN(CC(N)=O)CC1` , tested on CK1ε (Homo sapiens (Human))?
8.89

pIC50 of `CC(C)(C)C(=O)Nc1cc(C(=O)Nc2cn3nc(-c4c(-c5ccc(F)cc5)nc5ccccn45)ccc3n2)ccn1` on CK1ε (Homo sapiens (Human))?
8.98

Tell me reported pIC50 for `Cn1nc(-c2ccc(F)cc2)c(-c2ccc3nc(NC(=O)c4ccncc4)cn3n2)c1N1CCN(C(=O)CC(F)(F)F)CC1` , tested with CK1ε (Homo sapiens (Human)).
8.17
